Tested on: Staphylococcus aureus NR 2855
Test: in vitro antibacterial activity, standard agar dilution method
Format: cell-based
Settings: NR2855; Staphylococcus aureus NR 2855; aerobic; agar dilution; read-out: minimum inhibitory concentration (MIC)
Labelling: MIC reported below 0.4 µg/mL becomes true; at or above becomes false.

[
  {
    "compound": "CN1CCN(c2c(F)cc3c(=O)c(C(=O)O)cn4c3c2OC(CO)N4C)CC1 (centres unmarked)",
    "answer-label": "false"
  },
  {
    "compound": "CN1COc2c(N3CCNC(=O)C3)c(F)cc3c(=O)c(C(=O)O)cn1c23",
    "answer-label": "false"
  },
  {
    "compound": "CN1CCN(c2c(F)cc3c(=O)c(C(=O)O)cn4c3c2OCN4C)CC1",
    "answer-label": "true"
  },
  {
    "compound": "CN1COc2c(N3CCC(CN)C3)c(F)cc3c(=O)c(C(=O)O)cn1c23 (centres unmarked)",
    "answer-label": "true"
  },
  {
    "compound": "CN1COc2c(-n3ccnc3)c(F)cc3c(=O)c(C(=O)O)cn1c23",
    "answer-label": "false"
  },
  {
    "compound": "CN1COc2c(N3CCC(N)C3)c(F)cc3c(=O)c(C(=O)OCOC(=O)C(C)(C)C)cn1c23 (centres unmarked)",
    "answer-label": "false"
  }
]
